Test summary: Inhibition of Trypanosoma cruzi hexokinase
pIC50: −log10 of the molar value.
Property label: pIC50

structure_string=CCn1c2ccccc2c2cc(NC(P(=O)(O)O)P(=O)(O)O)ccc21 property_label=pIC50 assay_value=5.19

###

This listing pairs compounds with measured pKi.
Test summary: Inhibition of Trypanosoma cruzi strain CL Brener N-terminal His6-tagged glucokinase expressed in Escherichia coli using D-glucose as substrate in presence of ATP by Lineweaver-Burk Plot analysis
pKi: −log10 of the molar value.
Property label: pKi

structure_string=O=C(N[C@@H]1[C@@H](O)[C@H](O)[C@@H](CO)O[C@@H]1O)OCc1ccccc1 property_label=pKi assay_value=6.15
structure_string=O=C(N[C@@H]1[C@@H](O)[C@H](O)[C@@H](CO)O[C@@H]1O)c1ccccc1 property_label=pKi assay_value=4.49

###

Test summary: Inhibition of Leishmania major trypanothione reductase
Property label: IC50 (µM)

structure_string=O=C(CCl)N1c2ccccc2Oc2ccc(Cl)cc21 assay_value=7.6
structure_string=O=C(CCl)N1c2ccccc2COc2ccc(Cl)cc21 assay_value=7.2
structure_string=O=C(CCl)N1c2ccccc2Sc2ccccc21 assay_value=9.3

###

Test summary: Inhibition of Trypanosoma cruzi hexokinase
Property label: Ki (µM)

structure_string=CCn1c2ccccc2c2cc(NC(P(=O)(O)O)P(=O)(O)O)ccc21 property_label=Ki reading_unit=µM assay_value=2.8

###

Test system: Trypanosoma cruzi
Test summary: Antitrypanosomal activity against Trypanosoma cruzi Tulahuen amastigotes expressing beta-galactosidase gene infected in mouse NIH/3T3 cells after 4 days
Format: functional, cell-based
Condition info: NIH3T3, 96 h
Property label: IC50 (µM)

structure_string=O=C(N[C@@H]1[C@@H](O)[C@H](O)[C@@H](CO)O[C@@H]1O)c1ccccc1 property_label=IC50 assay_value=48.7
structure_string=O=C(N[C@@H]1[C@@H](O)[C@H](O)[C@@H](CO)O[C@@H]1O)OCc1ccccc1 property_label=IC50 assay_value=16.1

###

Test summary: Inhibition of Trypanosoma cruzi N-terminal His-tagged full-length glucose-6-phosphate dehydrogenase expressed in Escherichia coli BL21(DE3) using glucose-6-phosphate as substrate in presence of NADP+ by spectrophotometric method
Property label: Ki (µM)

compound="C[C@]12CC[C@H](O)C[C@@H]1CC[C@@H]1[C@@H]2CC[C@]2(C)C(=O)CC[C@@H]12 [EPIANDROSTERONE]" property_label=Ki assay_value=3.2

###

Test summary: Inhibition of Trypanosoma cruzi glucose-6-phosphate dehydrogenase
Property label: IC50

structure_string=Cc1ccc(Nc2ncc3c(n2)CCCC3=O)cc1 assay_value="480 nM"
structure_string=CCCCCCCn1cnc2sc(C(N)=O)c(C)c2c1=O assay_value="4900 nM"

###

This listing pairs compounds with measured pIC50.
Test summary: Inhibition of Trypanosoma cruzi strain CL Brener N-terminal His6-tagged glucokinase expressed in Escherichia coli using D-glucose as substrate in presence of ATP by colorimetric assay
pIC50: −log10 of the molar value.
Property label: pIC50

structure_string=O=C(N[C@@H]1[C@@H](O)[C@H](O)[C@@H](CO)O[C@@H]1O)OCc1ccccc1 assay_value=4.31
structure_string=O=C(N[C@@H]1[C@@H](O)[C@H](O)[C@@H](CO)O[C@@H]1O)c1ccccc1 assay_value=4.79
